- system: GSK3α (Homo sapiens (Human), UniProt P49840)
- Sequence (P49840 whole entry): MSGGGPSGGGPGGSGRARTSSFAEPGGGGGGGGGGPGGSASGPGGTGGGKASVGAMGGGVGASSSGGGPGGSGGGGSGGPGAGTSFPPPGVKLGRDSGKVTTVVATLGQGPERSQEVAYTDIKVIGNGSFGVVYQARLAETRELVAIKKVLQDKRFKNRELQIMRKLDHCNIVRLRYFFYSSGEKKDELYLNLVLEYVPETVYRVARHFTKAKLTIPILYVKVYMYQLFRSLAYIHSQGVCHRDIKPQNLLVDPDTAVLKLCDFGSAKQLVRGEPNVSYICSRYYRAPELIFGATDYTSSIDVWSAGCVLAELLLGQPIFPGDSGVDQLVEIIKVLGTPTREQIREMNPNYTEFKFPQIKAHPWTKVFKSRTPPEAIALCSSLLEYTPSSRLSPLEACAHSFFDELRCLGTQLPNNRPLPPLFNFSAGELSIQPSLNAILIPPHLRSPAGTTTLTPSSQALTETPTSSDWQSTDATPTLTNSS
pIC50: −log10 of the molar value.
Criterion: pIC50 meeting or surpassing 6. Met: true. Not met: false.

{"chemicalSmiles": "Cc1ccc(-n2nc(C(C)(C)C)cc2NC(=O)Nc2ccc(Oc3ccnc(Nc4ccc5c(ccn5C)c4)n3)c3ccccc23)cc1", "cat": "false"}
{"chemicalSmiles": "Cc1ccc(-n2nc(C(C)(C)C)cc2NC(=O)Nc2ccc(Oc3ccnc(Nc4ccc5cn[nH]c5c4)n3)c3ccccc23)cc1", "cat": "false"}
{"chemicalSmiles": "CC(C)(C)c1cc(NC(=O)Nc2ccc(Oc3ccnc(Nc4ccc5c(c4)NC(=O)C5(C)C)n3)c3ccccc23)n(-c2ccc(OCCN3CCOCC3)cc2)n1", "cat": "false"}
{"chemicalSmiles": "CC(C)(C)c1cc(NC(=O)Nc2ccc(Oc3ccnc(Nc4ccc5c(c4)CS(=O)(=O)C5)n3)c3ccccc23)n(-c2ccc(OCCN3CCOCC3)cc2)n1", "cat": "true"}
{"chemicalSmiles": "Cc1ccc(-n2nc(C(C)(C)C)cc2NC(=O)Nc2ccc(Oc3ccnc(Nc4cccc5cc[nH]c45)n3)c3ccccc23)cc1", "cat": "false"}
{"chemicalSmiles": "CC(C)(C)c1cc(NC(=O)Nc2ccc(Oc3ccnc(Nc4ccc5ncsc5c4)n3)c3ccccc23)n(-c2ccc(OCCN3CCOCC3)cc2)n1", "cat": "true"}
{"chemicalSmiles": "Cc1cc(Nc2cc(Oc3ccc(NC(=O)Nc4cc(C(C)(C)C)nn4-c4ccc(OCCN5CCOCC5)cc4)c4ccccc34)ccn2)cc2cn[nH]c12", "cat": "false"}
{"chemicalSmiles": "Cc1ccc(-n2nc(C(C)(C)C)cc2NC(=O)Nc2ccc(Oc3ccnc(Nc4ccc5scnc5c4)n3)c3ccccc23)cc1", "cat": "false"}

---

- Tested on: LPS-induced IL-8 release in d-U937 cells
- protocolSummary: LPS-induced IL-8 release in d-U937 cells
- Type: cell-based
- runConditions: Homo sapiens, dU937, read-out: LPS Induced Release of Cytokine in d-937 Cells IL-8 IC50
Entries and their IC50 values follow.

{"chemicalSmiles": "CC(C)(C)c1cc(NC(=O)Nc2ccc(Oc3ccnc(Nc4ccc5c(c4)COC5)n3)c3ccccc23)n(-c2ccc(OCCN3CCOCC3)cc2)n1", "IC50": "10.3 nM"}
{"chemicalSmiles": "CC(C)(C)c1cc(NC(=O)Nc2ccc(Oc3ccnc(Nc4ccc5[nH]ccc5c4)n3)c3ccccc23)n(-c2cccc(CN3CCCC3=O)c2)n1", "IC50": "16.6 nM"}
{"chemicalSmiles": "CC(C)(C)c1cc(NC(=O)Nc2ccc(Oc3ccnc(Nc4ccc5[nH]ncc5c4)n3)c3ccccc23)n(-c2cccc(CN3CCCC3=O)c2)n1", "IC50": "9.7 nM"}
{"chemicalSmiles": "COc1ccc(-n2nc(C(C)(C)C)cc2NC(=O)Nc2ccc(Oc3ccnc(Nc4ccc5[nH]ccc5c4)n3)c3ccccc23)cc1", "IC50": "1.1 nM"}
{"chemicalSmiles": "CC(C)c1cc(NC(=O)Nc2ccc(Oc3ccnc(Nc4ccc5[nH]ncc5c4)n3)c3ccccc23)n(-c2cccc(OCCN3CCOCC3)c2)n1", "IC50": "173 nM"}
{"chemicalSmiles": "Cc1ccc(-n2nc(C(C)(C)C)cc2NC(=O)Nc2ccc(Oc3ccnc(Nc4ccc5cn[nH]c5c4)n3)c3ccccc23)cc1", "IC50": "16.9 nM"}

---

- Tested on: Poly I:C-induced ICAM-1 expression in BEAS2B cells
- protocolSummary: Poly I:C-induced ICAM-1 expression in BEAS2B cells
- Type: cell-based
- runConditions: Homo sapiens, BEAS-2B, read-out: Poly IC induced ICAM1 in BEAS2B IC50
measurementKind: log10 IC50 (log10 of the value in nM)

{"chemicalSmiles": "CC(C)(C)c1cc(NC(=O)Nc2ccc(Oc3ccnc(Nc4ccc5scnc5c4)n3)c3ccccc23)n(-c2ccc(OCCN3CCOCC3)cc2)n1", "log10 IC50": 0.85}
{"chemicalSmiles": "CC(C)(C)c1cc(NC(=O)Nc2ccc(Oc3ccnc(Nc4ccc5c(cnn5CCN5CCOCC5)c4)n3)c3ccccc23)n(-c2ccc(OCCN3CCOCC3)cc2)n1", "log10 IC50": 0.43}
{"chemicalSmiles": "CC(C)(C)c1cc(NC(=O)Nc2ccc(Oc3ccnc(Nc4ccc5c(c4)OCCO5)n3)c3ccccc23)n(-c2ccc(OCCN3CCOCC3)cc2)n1", "log10 IC50": 0.90}
{"chemicalSmiles": "Cc1ccc(-n2nc(C(C)(C)C)cc2NC(=O)Nc2ccc(Oc3ccnc(Nc4ccc5[nH]ncc5c4)n3)c3ccccc23)cc1", "log10 IC50": 0.40}
{"chemicalSmiles": "CC(C)(C)c1cc(NC(=O)Nc2ccc(Oc3ccnc(Nc4ccc5c(c4)CS(=O)(=O)C5)n3)c3ccccc23)n(-c2ccc(OCCN3CCOCC3)cc2)n1", "log10 IC50": -2.00}
{"chemicalSmiles": "Cc1ccc(-n2nc(C(C)(C)C)cc2NC(=O)Nc2ccc(Oc3cc(Nc4ccc5[nH]ncc5c4)ncn3)c3ccccc23)cc1", "log10 IC50": 0.63}

---

pIC50: −log10 of the molar value.
Dear all, this message contains pIC50 results, target or system cSrc (Homo sapiens (Human), UniProt P12931).

{"chemicalSmiles": "COc1ccc(-n2nc(C(C)(C)C)cc2NC(=O)Nc2ccc(Oc3ccnc(Nc4ccc5c(cnn5CCN5CCOCC5)c4)n3)c3ccccc23)cc1", "system": "cSrc (Homo sapiens (Human), UniProt P12931)", "qualifierSign": "=", "pIC50": 8.70}
{"chemicalSmiles": "Cc1ccc(-n2nc(C(C)(C)C)cc2NC(=O)Nc2ccc(Oc3ccnc(Nc4ccc5scnc5c4)n3)c3ccccc23)cc1", "system": "cSrc (Homo sapiens (Human), UniProt P12931)", "qualifierSign": "=", "pIC50": 7.74}
{"chemicalSmiles": "CC(C)c1cc(NC(=O)Nc2ccc(Oc3ccnc(Nc4ccc5[nH]ncc5c4)n3)c3ccccc23)n(-c2ccc(OCCN3CCOCC3)cc2)n1", "system": "cSrc (Homo sapiens (Human), UniProt P12931)", "qualifierSign": "=", "pIC50": 8.52}
{"chemicalSmiles": "CC(C)(C)c1cc(NC(=O)Nc2ccc(Oc3ccnc(Nc4ccc5c(c4)C(=O)NC5)n3)c3ccccc23)n(-c2ccc(OCCN3CCOCC3)cc2)n1", "system": "cSrc (Homo sapiens (Human), UniProt P12931)", "qualifierSign": ">", "pIC50": 9.00}
{"chemicalSmiles": "Cc1ccc(-n2nc(C(C)(C)C)cc2NC(=O)Nc2ccc(Oc3ccnc(Nc4ccc5c(ccn5C)c4)n3)c3ccccc23)cc1", "system": "cSrc (Homo sapiens (Human), UniProt P12931)", "qualifierSign": "=", "pIC50": 6.81}
{"chemicalSmiles": "COc1ccc(-n2nc(C(C)(C)C)cc2NC(=O)Nc2ccc(Oc3ccnc(Nc4ccc5[nH]ncc5c4)n3)c3ccccc23)cn1", "system": "cSrc (Homo sapiens (Human), UniProt P12931)", "qualifierSign": "=", "pIC50": 8.52}

---

GSK3α (Homo sapiens (Human), UniProt P49840) data, read-out pIC50
pIC50: −log10 of the molar value.

{"chemicalSmiles": "Cc1ccc(-n2nc(C(C)(C)C)cc2NC(=O)Nc2ccc(Oc3ccnc(Nc4cccc5[nH]ncc45)n3)c3ccccc23)cc1", "pIC50": "< 4.80"}
{"chemicalSmiles": "Cc1ccc(-n2nc(C(C)(C)C)cc2NC(=O)Nc2ccc(Oc3ccnc(Nc4ccc5ncsc5c4)n3)c3ccccc23)cc1", "pIC50": "< 4.81"}
{"chemicalSmiles": "COc1ccc(-n2nc(C(C)C)cc2NC(=O)Nc2ccc(Oc3ccnc(Nc4cc(C)c5[nH]ncc5c4)n3)c3ccccc23)cc1", "pIC50": "< 4.81"}
{"chemicalSmiles": "CC(C)(C)c1cc(NC(=O)Nc2ccc(Oc3ccnc(Nc4ccc5[nH]ccc5c4)n3)c3ccccc23)n(-c2cccc(CN3CCCC3=O)c2)n1", "pIC50": "< 5.85"}

---

Consider compounds characterized by their IC50 with Syk (Homo sapiens (Human), UniProt P43405).
measurementKind: IC50

{"compound": "Cc1ccc(-n2nc(C(C)(C)C)cc2NC(=O)Nc2ccc(Oc3ccnc(Nc4ccc5ncsc5c4)n3)c3ccccc23)cc1 [Example 35]", "valueReported": "> 1560 nM"}
{"compound": "CC(C)(C)c1cc(NC(=O)Nc2ccc(Oc3ccnc(Nc4ccc5c(c4)NC(=O)C5)n3)c3ccccc23)n(-c2ccc(OCCN3CCOCC3)nc2)n1 [Example 90]", "valueReported": "< 1 nM"}
{"compound": "CC(C)(C)c1cc(NC(=O)Nc2ccc(Oc3ccnc(Nc4ccc5[nH]ncc5c4)c3)c3ccccc23)n(-c2ccc(OCCN3CCOCC3)cc2)n1 [Example 67]", "valueReported": "< 1 nM"}

---

Form: system (GSK3α (Homo sapiens (Human))), quantity (IC50), values below.
measurementKind: IC50

{"chemicalSmiles": "Cc1ccc(-n2nc(C(C)(C)C)cc2NC(=O)Nc2ccc(Oc3ccnc(Nc4cnc5[nH]ccc5c4)n3)c3ccccc23)cc1", "valueReported": "> 1600 nM"}
{"chemicalSmiles": "Cc1ccc(-n2nc(C(C)(C)C)cc2NC(=O)Nc2ccc(Oc3ccnc(Nc4ccc5[nH]ccc5c4)n3)c3ccccc23)cc1", "valueReported": "> 1610 nM"}
{"chemicalSmiles": "Cc1ccc(-n2nc(C(C)(C)C)cc2NC(=O)Nc2ccc(Oc3ccnc(Nc4ccc5onc(N)c5c4)n3)c3ccccc23)cc1", "valueReported": "> 1560 nM"}
